Reported values of solubility kinetic for individual entries
Conditions: buffer; pH 7.4; 200.0 µM
property measured: solubility kinetic

compound | measured
COCC(=O)Nc1ccc(S(=O)(=O)N2CCCC2)cc1 | > 44.8 µg/mL
Cc1cc(C(=O)OCC(=O)N2CCC(C)CC2)c2ccccc2n1 | > 49 µg/mL
CC1CCCN(C(=O)COC(=O)C2=COCCO2)C1 (stereo not drawn) | > 40.4 µg/mL
Cc1ccccc1NC(=O)C1CCN(C(=O)NC2CCCCC2)CC1 | > 51.5 µg/mL
CCOc1cc(N2CCOCC2)c(OCC)cc1NC(=O)c1cccc(S(=O)(=O)N2CCOCC2)c1 | > 77.9 µg/mL
Cc1ccc[n+](Cc2ccc([N+](=O)[O-])cc2)c1.[Br-] | > 46.4 µg/mL
COC(=O)c1ccc(C(=O)Nc2nc3cc(N)c(C)cc3s2)cc1 | < 0.2 µg/mL
O=C(Nc1ccc(Cl)cc1)N1CCOCC1 | > 36.1 µg/mL
CNc1cc(Cl)nc(SC)n1 | > 28.4 µg/mL
COC(=O)Cc1c(O)ccn(CCc2c[nH]c3ccc(OC)cc23)c1=O | > 53.5 µg/mL
CSc1ncccc1C(=O)OCC(=O)NC(C)(C)C | > 42.4 µg/mL
Cn1c(CNC(=O)C2CCCCC2)cc2cc(Cl)ccc21 | < 0.3 µg/mL
O=C1CN(c2ccccc2)C(=S)N1c1ccccc1.[Na+] | 7.4 µg/mL
Cc1onc(-c2c(Cl)cccc2Cl)c1C(=O)NN1CCCCCC1 | > 55.2 µg/mL
Cc1ccc(CONC(=O)c2ccccc2)cc1 | > 36.2 µg/mL
CC(=O)Nc1nc(C)c(C(C)(C)C)s1 | > 31.8 µg/mL
Cc1cn(C2CCC(CO)O2)c(=O)[nH]c1=O (stereo not drawn) | > 33.9 µg/mL
COc1ccc2c(c1)CC/C(=C/c1ccccn1)C2=O | 38.5 µg/mL
CCCCCC1=NN2C(=O)CC(=O)N=C2S1 | > 35.9 µg/mL
Cc1ccc(C(=O)OCc2nc3ccsc3c(=O)[nH]2)o1 | > 43.5 µg/mL
CSc1ncccc1C(=O)OC(C)C(=O)Nc1cccc(S(=O)(=O)N2CCOCC2)c1 (stereo not drawn) | 8.4 µg/mL
O=C(c1cc(C(=O)N2CCCC2)cc([N+](=O)[O-])c1)N1CCCC1 | > 47.6 µg/mL
Cc1ccc(C)c2sc(N)nc12 | > 26.7 µg/mL
O=C(Nc1cccc(O)c1)C1CC(c2cccc(Br)c2)=NO1 (stereo not drawn) | 28 µg/mL
O=C1CCCN1C(=O)COc1cc(F)ccc1[N+](=O)[O-] | > 42.3 µg/mL
CN(c1ccccc1)c1nc(N)c([N+](=O)[O-])c(NCCO)n1 | 42.9 µg/mL
O=C(NCc1ccccc1)c1cc2ccccc2oc1=O | 2.7 µg/mL
CCOC(=O)N1CCN(C(=O)c2cc3ccccc3o2)CC1 | > 45.3 µg/mL

---

Conditions: buffer; pH 7.4; 200.0 µM
property measured: solubility kinetic (µg/mL)

compound | censoring sign | measured
CN1CCN(c2ccc(C(F)(F)F)cc2NC(=O)c2ccco2)CC1 | > | 53
O=C(COC(=O)c1cc(=O)[nH]c2ccccc12)NCc1cccs1 | > | 51.4
COC(=O)c1sc(-c2ccccc2)cc1NC(=O)C1CC1 | = | 0.7
COc1ccc2[nH]cc(CCNC(=O)c3ccc4ccccc4n3)c2c1 | = | 1.6
CSc1ccccc1NC(=O)c1csc(C)c1 | = | 30
CC(O)CNCCOc1ccccc1-c1ccccc1.O=C(O)C(=O)O (stereo not drawn) | > | 54.2
O=C(CC1SC(N2CCOCC2)=NC1=O)Nc1ccccc1F (stereo not drawn) | > | 50.6
O=C(O)Cn1c(O)c(C2=c3ccccc3=NC2=O)sc1=O | = | 39.4
CCOC(=O)C1CCN(C(=S)Nc2ccc(C)cc2)CC1 | = | 19.9
c1ccc(COc2ccccc2CNC2CCCC2)cc1 | = | 38.5
CCOc1ncc(S(=O)(=O)N2CCN(CC)CC2)cc1C(=O)O | > | 51.5
C=CCOc1ccc(/C=C2/C(=O)ON=C2C)cc1OCC | = | 28.3
O=c1[nH]c(Sc2ccc([N+](=O)[O-])cc2[N+](=O)[O-])nc2ccccc12 | = | 26.3
Cc1cccc(Nc2ccc3nonc3c2[N+](=O)[O-])c1C | < | 0.2
CCC(C(=O)Nc1ncc(C)s1)c1ccccc1 (stereo not drawn) | = | 2.9
CC(C)(C)NC(=O)C(=O)NNC(=O)c1cccc([N+](=O)[O-])c1 | > | 46.2
COc1ccccc1CNC(=O)c1oc2ccccc2c1C | = | 9.8
CCN(C(=O)c1ccc(Br)o1)C1CCS(=O)(=O)C1 (stereo not drawn) | > | 50.4
CCOc1ccc(C(=O)NCc2ccco2)cc1OC | = | 37.7
CCOc1ccc(C2NC(=O)c3ccccc3O2)cc1OC (stereo not drawn) | = | 3.3
O=C(CC1C(=O)NCCN1C(=O)Nc1ccccc1)Nc1ccc(F)cc1 (stereo not drawn) | = | 52.2
CC(C(=O)OCC(=O)NC1CCCC1)N1C(=O)c2ccccc2C1=O (stereo not drawn) | = | 50
CN1CCC2(CC1)NC(=O)c1ccccc1N2.Cl | > | 40.2
COc1ccc(C2C(C(C)=O)=C(O)C(=O)N2c2ccccn2)cc1 (stereo not drawn) | > | 48.7
Cc1onc(-c2c(Cl)cccc2Cl)c1C(=O)Nc1nccs1 | = | 4.7
O=C(O)CSc1nc(-c2ccccc2)nc2c1CCCC2 | > | 45.1
O=c1oc(-c2ccccc2F)nc2scc(-c3ccccc3)c12 | < | 0.7
CCOC(=O)NC(=O)/C(C#N)=C/c1ccc(N(C)C)cc1 | = | 15.1
O=[N+]([O-])c1ccc(N2CCN(Cc3ccncc3)CC2)cc1 | = | 35.3
COc1ccc(NC(=O)c2ccc3c(c2)NC(=O)CO3)cc1OC | = | 10.2
CN(Cc1nc(-c2cccs2)no1)CC1(N2CCOCC2)CCCCC1 | = | 38.7
CCc1c(O)nc(SCC(=O)N(CC)CC)[nH]c1=O | > | 42.8
NS(=O)(=O)c1ccc(CCNC(=O)CN2CCCCC2)cc1 | = | 45.4

Entry source: PubChem BioAssay AID1996
